molecular target: Mcl-1 (Homo sapiens, UniProt Q07820); assay: FPA competition assay, inhibition of Mcl-1 / FITC-Mcl-BH3 binding; conditions: 250 nM Mcl-1 and 250 nM FITC-Mcl-BH3 probe, pH 7.5, cells printed in nM
Sequence (Q07820 whole entry, species assumed): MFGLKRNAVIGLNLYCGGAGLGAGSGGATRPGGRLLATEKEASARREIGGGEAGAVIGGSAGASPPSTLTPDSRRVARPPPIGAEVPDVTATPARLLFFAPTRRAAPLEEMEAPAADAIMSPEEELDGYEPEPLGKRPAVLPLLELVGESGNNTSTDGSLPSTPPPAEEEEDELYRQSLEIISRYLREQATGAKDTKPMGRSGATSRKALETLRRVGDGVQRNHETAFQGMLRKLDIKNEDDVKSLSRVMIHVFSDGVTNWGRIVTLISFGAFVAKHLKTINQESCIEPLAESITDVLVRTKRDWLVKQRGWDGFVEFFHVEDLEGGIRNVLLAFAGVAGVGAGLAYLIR
Reported IC50 values for a set of compounds
measure: IC50 (nM)

| given-smiles | numeric-readout |
| --- | --- |
| O=C1N=C(N2CCC(CCO)CC2)SC1=Cc1ccccc1 | 589 |
| COc1ccc(C=C2SC(N3CCC(CCO)CC3)=NC2=O)cc1 | 52.1 |
| Cc1ccc(C=C2SC(N3CCN(CCO)CC3)=NC2=O)cc1 | 401 |
| O=C1N=C(N2CCC(CCO)CC2)SC1=Cc1ccc(Cl)cc1 | 369 |
| O=C1N=C(N2CCN(CCO)CC2)S/C1=C\c1ccc(Cl)cc1 | 89.7 |
| COc1ccc(/C=C2\SC(N3CCN(CCO)CC3)=NC2=O)cc1 | 161 |

Measured values drawn from patent US20190062322A1 for this set.
